# SYSTEM: human IPMK (Homo sapiens, UniProt Q8NFU5)
# Sequence (Q8NFU5 with tags, fused parts or gaps): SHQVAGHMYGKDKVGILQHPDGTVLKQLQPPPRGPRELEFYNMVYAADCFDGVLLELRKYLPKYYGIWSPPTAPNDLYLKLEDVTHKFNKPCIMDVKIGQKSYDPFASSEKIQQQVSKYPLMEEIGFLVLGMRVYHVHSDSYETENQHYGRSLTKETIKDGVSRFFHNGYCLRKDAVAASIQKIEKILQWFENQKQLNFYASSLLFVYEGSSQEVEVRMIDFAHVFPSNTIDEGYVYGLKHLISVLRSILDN
# METHOD_NOTES: IPMK kinase activity assay (33P-radiolabeled HPLC assay)
# Type: biochemical
# EXPERIMENTAL_SETUP: 33P-1,3,4,5-IP4 to InsP5, 1.0 mM ATP, 2 nM IPMK; mean with standard error, n = 3 (compound 1 n = 5)
pIC50: −log10 of the molar value.
OBSERVATION_TYPE: pIC50

Check out these entries, answers already filled in.
> print(dat)
                                   compound  value
1  FC(F)(F)c1ccc(-c2onc3ccc(-c4nnn[nH]4)cc23)cc1   8.60
2  O=C(Nc1ccc(-c2onc3ccc(-c4nnn[nH]4)cc23)cc1)C1CC1   8.46
3  c1cc(OC2CCNCC2)cc(-c2onc3ccc(-c4nnn[nH]4)cc23)c1   8.47

[P] Cc1cc(C)cc(-c2onc3ccc(C(=O)O)cc23)c1
[Q] c1ccc(-c2onc3ccc(-c4nnn[nH]4)cc23)cc1
[R] Clc1cnc(Oc2cccc(-c3onc4ccc(-c5nnn[nH]5)cc34)c2)c(Cl)c1
Ask: Given 3 compounds, produce a descending ranking by pIC50. List the labels, following the order given in the request.
Reply: Q, R, P
(Q: 8.42, R: 8.02, P: 7.54)

###

# SYSTEM: human IPMK (Homo sapiens, UniProt Q8NFU5)
# METHOD_NOTES: Isothermal titration calorimetry (ITC)
# EXPERIMENTAL_SETUP: 15 μM IPMK in cell, 150 μM inhibitor in syringe, 25 °C, pH 7.2
OBSERVATION_TYPE: pKd
Entry type: numeric. Quantity: pKd, the -log10 of concentration in molar units.

Ask: Observed pKd on human IPMK (Homo sapiens, UniProt Q8NFU5) for Cc1cc(C)cc(-c2onc3ccc(/C=C/C(=O)O)cc23)c1 , please.
Reply: 7.96

###

# SYSTEM: UniProt:P23677
# Sequence (P23677 whole entry): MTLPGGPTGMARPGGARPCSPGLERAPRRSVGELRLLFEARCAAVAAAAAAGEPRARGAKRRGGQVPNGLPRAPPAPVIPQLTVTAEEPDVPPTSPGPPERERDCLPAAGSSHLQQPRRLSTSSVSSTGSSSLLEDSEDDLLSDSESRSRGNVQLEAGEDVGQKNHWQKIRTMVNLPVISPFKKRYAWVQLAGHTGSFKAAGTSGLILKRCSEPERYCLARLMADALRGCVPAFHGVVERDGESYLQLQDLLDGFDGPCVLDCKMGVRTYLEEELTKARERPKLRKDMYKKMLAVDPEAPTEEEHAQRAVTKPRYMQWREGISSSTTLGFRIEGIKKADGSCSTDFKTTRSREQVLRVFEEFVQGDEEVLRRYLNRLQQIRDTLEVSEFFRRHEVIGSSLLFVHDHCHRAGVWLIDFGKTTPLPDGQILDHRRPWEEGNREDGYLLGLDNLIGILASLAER
OBSERVATION_TYPE: pIC50
Entry type: numeric. Quantity: pIC50, the -log10 of concentration in molar units.

Ask: So what does the record say about pIC50 for Cc1cc(C)cc(-c2onc3ccc(/C=C/C(=O)O)cc23)c1 ?
Reply: 5.10

###

# Test system: human IPMK
# METHOD_NOTES: IPMK kinase activity assay (33P-radiolabeled HPLC assay)
# Type: biochemical
# EXPERIMENTAL_SETUP: ratio of IP6K1 IC50 to IPMK IC50
OBSERVATION_TYPE: IP6K1/IPMK

[P] Cc1cc(C)cc(-c2onc3ccc([C@H]4C[C@@H]4C(=O)O)cc23)c1
[Q] O=C(Nc1cccc(-c2onc3ccc(-c4nnn[nH]4)cc23)c1)C1CC1
[R] Cc1cc(C)cc(-c2onc3ccc(/C=C/C(=O)O)cc23)c1
Ask: Order them by IP6K1/IPMK, ascending: the compounds above. List the labels, following the order given in the request.
Reply: P, R, Q
(P: 5.6, R: 11.4, Q: 52)
